The origin of these recorded values is ChEMBL document CHEMBL5108009.

- Target: Alpha-1A adrenergic receptor (Rattus norvegicus, UniProt P43140)
- Sequence (P43140 whole entry): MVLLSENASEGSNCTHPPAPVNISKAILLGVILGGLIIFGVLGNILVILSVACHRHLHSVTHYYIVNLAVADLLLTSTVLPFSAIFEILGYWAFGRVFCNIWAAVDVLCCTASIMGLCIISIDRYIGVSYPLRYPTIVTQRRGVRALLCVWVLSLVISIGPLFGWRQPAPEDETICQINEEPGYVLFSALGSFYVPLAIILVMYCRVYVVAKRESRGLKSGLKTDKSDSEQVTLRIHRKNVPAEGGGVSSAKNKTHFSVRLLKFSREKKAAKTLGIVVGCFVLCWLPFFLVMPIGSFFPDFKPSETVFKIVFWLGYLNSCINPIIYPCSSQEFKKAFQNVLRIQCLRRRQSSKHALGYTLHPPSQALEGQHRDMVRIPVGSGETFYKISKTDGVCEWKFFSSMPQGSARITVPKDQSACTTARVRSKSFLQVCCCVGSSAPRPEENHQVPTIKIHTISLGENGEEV
- Procedure summary: Displacement of [3H]-WB4101 from rat forebrain alpha 1 adrenergic receptors
- Type: tissue-based
Readout name: Ki (nM)
Field: numeric (nM). Do not append units.

Fill in the blank: the reported Ki of `O=C(c1ccc(F)cc1)C1CCN(CCn2c(=S)[nH]c3ccccc3c2=O)CC1` is ____.
5

----------
- Target: Sigma intracellular receptor 2 (Homo sapiens)
- Sequence (Q5BJF2 whole entry): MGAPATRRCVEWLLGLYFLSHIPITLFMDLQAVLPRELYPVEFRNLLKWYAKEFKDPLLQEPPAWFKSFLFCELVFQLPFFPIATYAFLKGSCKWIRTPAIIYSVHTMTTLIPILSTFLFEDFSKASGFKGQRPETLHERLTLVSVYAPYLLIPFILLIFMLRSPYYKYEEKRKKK
- Procedure summary: Binding affinity to sigma 2 receptor (unknown origin) assessed as inhibition constant
Readout name: Ki (nM)
Field: numeric (nM). Do not append units.

Fill in the blank: the reported Ki of `COc1cccc(S(=O)(=O)N2CCC[C@@H]2CCN2CCC(C)CC2)c1` is ____.
1.6

----------
Record form. Attribute: pKi. Fill in for each entry.
Note on units: pKi is unitless, being -log10 of a concentration expressed in mol/L.

Entry NC(=O)c1ccc(F)c2c1CC(N(C1CCC1)C1CCC1)CO2 (stereo unspecified) , system 5-hydroxytryptamine receptor 1A (Homo sapiens, UniProt P08908): what pKi was measured?
9.22

Entry `CC1(C(=O)N(CCN2CCN(c3ccccc3O[11CH3])CC2)c2ccccn2)CCCCC1` , system 5-hydroxytryptamine receptor 1A (Homo sapiens, UniProt P08908): what pKi was measured?
8.64

Entry `CCCN(CCC)[C@@H]1CCc2cccc(SC)c2C1` , system 5-hydroxytryptamine receptor 1A (Homo sapiens, UniProt P08908): what pKi was measured?
9.22

Entry COc1cccc2c1CCCC2CCCN1CCN(c2ccccc2)CC1 (stereo unspecified) , system 5-hydroxytryptamine receptor 1A (Homo sapiens, UniProt P08908): what pKi was measured?
9.30

Entry `COc1ccc2cccc(N3CCN(CCNC(=O)c4ccc([18F])cc4)CC3)c2c1` , system 5-hydroxytryptamine receptor 1A (Homo sapiens, UniProt P08908): what pKi was measured?
9.01

----------
// pIC50 collected for Serotonin 3 (5-HT3) receptor
Note on units: pIC50 is unitless, being -log10 of a concentration expressed in mol/L.

Fill in the blank: the reported pIC50 of `COc1cn2cccc2c(N2CCN(Cc3ccc(F)cc3)CC2)n1` is ____.
8.18

Fill in the blank: the reported pIC50 of `CN1CCN(c2ccc3ccccc3n2)CC1` is ____.
8.33

----------
- Target: 5-hydroxytryptamine receptor 1A (Homo sapiens)
- Sequence (P08908 whole entry): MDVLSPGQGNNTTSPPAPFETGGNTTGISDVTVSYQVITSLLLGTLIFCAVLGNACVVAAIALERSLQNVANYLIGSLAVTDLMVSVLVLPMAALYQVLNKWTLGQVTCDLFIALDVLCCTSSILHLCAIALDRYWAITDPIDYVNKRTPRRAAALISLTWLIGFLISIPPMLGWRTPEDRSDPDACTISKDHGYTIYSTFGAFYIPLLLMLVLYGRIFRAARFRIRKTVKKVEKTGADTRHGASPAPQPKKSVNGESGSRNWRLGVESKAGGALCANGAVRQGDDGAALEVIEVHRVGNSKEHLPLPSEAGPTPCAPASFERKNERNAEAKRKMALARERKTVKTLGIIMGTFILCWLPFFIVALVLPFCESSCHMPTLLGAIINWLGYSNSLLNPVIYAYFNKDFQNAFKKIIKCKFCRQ
- Procedure summary: Binding affinity to human 5-HT1A receptor expressed in CHO cells assessed as inhibition constant
- Type: cell-based
Readout name: pKi
Note on units: pKi is unitless, being -log10 of a concentration expressed in mol/L.

Fill in the blank: the reported pKi of `O=C(NCCN1CCN(c2cccc3c2OCCO3)CC1)c1ccc(F)cc1` is ____.
10.00
